# test-name: total protein half-life in vivo (active degradation + dilution); higher = more stable protein
# condition-details: wild type E. coli NCM3722; growth: P-lim chemostat; doubling time 12 h
parameter: total protein half-life in vivo (h)

[
  {
    "construct-sequence": "MSSEKLYSPLKVGAITAANRIFMAPLTRLRSIEPGDIPTPLMAEYYRQRASAGLIISEATQISAQAKGYAGAPGIHSPEQIAAWKKITAGVHAENGHMAVQLWHTGRISHASLQPGGQAPVAPSALSAGTRTSLRDENGQAIRVETSMPRALELEEIPGIVNDFRQAIANAREAGFDLVELHSAHGYLLHQFLSPSSNHRTDQYGGSVENRARLVLEVVDAGIEEWGADRIGIRVSPIGTFQNTDNGPNEEADALYLIEQLGKRGIAYLHMSEPDWAGGEPYTDAFREKVRARFHGPIIGAGAYTVEKAETLIGKGLIDAVAFGRDWIANPDLVARLQRKAELNPQRAESFYGGGAEGYTDYPTL",
    "value-observed": 2.85
  }
]

* * *

# test-name: total protein half-life in vivo (active degradation + dilution); higher = more stable protein
# condition-details: wild type E. coli NCM3722; growth: P-lim chemostat; doubling time 12 h
# total protein half-life in vivo >= 10 h gives t, anything below gives f

[
  {
    "construct-sequence": "MKQHQSADNSQGQLYIVPTPIGNLADITQRALEVLQAVDLIAAEDTRHTGLLLQHFGINARLFALHDHNEQQKAETLLAKLQEGQNIALVSDAGTPLINDPGYHLVRTCREAGIRVVPLPGPCAAITALSAAGLPSDRFCYEGFLPAKSKGRRDALKAIEAEPRTLIFYESTHRLLDSLEDIVAVLGESRYVVLARELTKTWETIHGAPVGELLAWVKEDENRRKGEMVLIVEGHKAQEEDLPADALRTLALLQAELPLKKAAALAAEIHGVKKNALYKYALEQQG",
    "label-value": "t"
  },
  {
    "construct-sequence": "MNRIEHYHDWLRDAHAMEKQAESMLESMASRIDNYPELRARIEQHLSETKNQIVQLETILDRNDISRSVIKDSMSKMAALGQSIGGIFPSDEIVKGSISGYVFEQFEIACYTSLLAAAKNAGDTASIPTIEAILNEEKQMADWLIQNIPQTTEKFLIRSETDGVEAKK",
    "label-value": "t"
  },
  {
    "construct-sequence": "MQQVFFQETEFLNSVIDYDHKVETENLCLDIAYGTDKNFLFGCGISIASILKYNEGSRLCFHIFTDYFGDDDRKYFDALALQYKTRIKIYLINGDRLRSLPSTKNWTHAIYFRFVIADYFINKAPKVLYLDADIICQGTIEPLINFSFPDDKVAMVVTEGQADWWEKRAHSLGVAGIAKGYFNSGFLLINTAQWAAQQVSARAIAMLNEPEIIKKITHPDQDVLNMLLADKLIFADIKYNTQFSLNYQLKESFINPVTNDTIFIHYIGPTKPWHDWAWDYPVSQAFMEAKNASPWKNTALLKPNNSNQLRYSAKHMLKKHRYLKGFSNYLFYFIEKIKH",
    "label-value": "t"
  },
  {
    "construct-sequence": "MKCPVCHQGEMVSGIKDIPYTFRGRKTVLKGIHGLYCVHCEESIMNKEESDAFMAQVKAFRASVNAETVAPEFIVKVRKKLSLTQKEASEIFGGGVNAFSRYEKGNAQPHPSTIKLLRVLDKHPELLNEIR",
    "label-value": "f"
  },
  {
    "construct-sequence": "MPKLILASTSPWRRALLEKLQISFECAAPEVDETPRSDESPRQLVLRLAQEKAQSLASRYPDHLIIGSDQVCVLDGEITGKPLTEENARLQLRKASGNIVTFYTGLALFNSANGHLQTEVEPFDVHFRHLSEAEIDNYVRKEHPLHCAGSFKSEGFGITLFERLEGRDPNTLVGLPLIALCQMLRREGKNPLMG [P0A729]",
    "label-value": "t"
  },
  {
    "construct-sequence": "MNNSAFTFQTLHPDTIMDALFEHGIRVDSGLTPLNSYENRVYQFQDEDRRRFVVKFYRPERWTADQILEEHQFALQLVNDEVPVAAPVAFNGQTLLNHQGFYFAVFPSVGGRQFEADNIDQMEAVGRYLGRMHQTGRKQLFIHRPTIGLNEYLIEPRKLFEDATLIPSGLKAAFLKATDELIAAVTAHWREDFTVLRLHGDCHAGNILWRDGPMFVDLDDARNGPAVQDLWMLLNGDKAEQRMQLETIIEAYEEFSEFDTAEIGLIEPLRAMRLVYYLAWLMRRWADPAFPKNFPWLTGEDYWLRQTATFIEQAKVLQEPPLQLTPMY [P0C0K3]",
    "label-value": "t"
  }
]

* * *

# test-name: total protein half-life in vivo (active degradation + dilution); higher = more stable protein
# condition-details: wild type E. coli NCM3722; growth: P-lim chemostat; doubling time 12 h

[
  {
    "construct-sequence": "MTMTRLKISKTLLAVMLTSAVATGSAYAENNAQTTNESAGQKVDSSMNKVGNFMDDSAITAKVKAALVDHDNIKSTDISVKTDQKVVTLSGFVESQAQAEEAVKVAKGVEGVTSVSDKLHVRDAKEGSVKGYAGDTATTSEIKAKLLADDIVPSRHVKVETTDGVVQLSGTVDSQAQSDRAESIAKAVDGVKSVKNDLKTK [P0AFH8]",
    "total protein half-life in vivo": "9.28 h"
  },
  {
    "construct-sequence": "MSHLKDPTTQYYTGEYPKQKQPTPGIQAKMTPVPDCGEKTYVGSGRLKDRKALVTGGDSGIGRAAAIAYAREGADVAISYLPVEEEDAQDVKKIIEECGRKAVLLPGDLSDEKFARSLVHEAHKALGGLDIMALVAGKQVAIPDIADLTSEQFQKTFAINVFALFWLTQEAIPLLPKGASIITTSSIQAYQPSPHLLDYAATKAAILNYSRGLAKQVAEKGIRVNIVAPGPIWTALQISGGQTQDKIPQFGQQTPMKRAGQPAELAPVYVYLASQESSYVTAEVHGVCGGEHLG [P0AG84]",
    "total protein half-life in vivo": "10.7 h"
  },
  {
    "construct-sequence": "MNPVPAQREYFLDSIRAWLMLLGIPFHISLIYSSHTWHVNSAESSLWLTLFNDFIHSFRMQVFFVISGYFSYMLFLRYPLKKWWKVRVERVGIPMLTAIPLLTLPQFIMLQYVKGKAESWPGLSLYDKYNTLAWELISHLWFLLVLVVMTTLCVWIFKRIRNNLENSDKTNKKFSMVKLSVIFLCLGIGYAVIRRTIFIVYPPILSNGMFNFIVMQTLFYLPFFILGALAFIFPHLKALFTTPSRGCTLAAALAFVAYLLNQRYGSGDAWMYETESVITMVLGLWMVNVVFSFGHRLLNFQSARVTYFVNASLFIYLVHHPLTLFFGAYITPHITSNWLGFLCGLIFVVGIAIILYEIHLRIPLLKFLFSGKPVVKRENDKAPAR",
    "total protein half-life in vivo": "> 16 h"
  },
  {
    "construct-sequence": "MQILLANPRGFCAGVDRAISIVENALAIYGAPIYVRHEVVHNRYVVDSLRERGAIFIEQISEVPDGAILIFSAHGVSQAVRNEAKSRDLTVFDATCPLVTKVHMEVARASRRGEESILIGHAGHPEVEGTMGQYSNPEGGMYLVESPDDVWKLTVKNEEKLSFMTQTTLSVDDTSDVIDALRKRFPKIVGPRKDDICYATTNRQEAVRALAEQAEVVLVVGSKNSSNSNRLAELAQRMGKRAFLIDDAKDIQEEWVKEVKCVGVTAGASAPDILVQNVVARLQQLGGGEAIPLEGREENIVFEVPKELRVDIREVD",
    "total protein half-life in vivo": "5.25 h"
  },
  {
    "construct-sequence": "MMIRERIEEKLRAAFQPVFLEVVDESYRHNVPAGSESHFKVVLVSDRFTGERFLNRHRMIYSTLAEELSTTVHALALHTYTIKEWEGLQDTVFASPPCRGAGSIA [P0ABE2]",
    "total protein half-life in vivo": "5.55 h"
  },
  {
    "construct-sequence": "MKPRQRQAAILEYLQKQGKCSVEELAQYFDTTGTTIRKDLVILEHAGTVIRTYGGVVLNKEESDPPIDHKTLINTHKKELIAEAAVSFIHDGDSIILDAGSTVLQMVPLLSRFNNITVMTNSLHIVNALSELDNEQTILMPGGTFRKKSASFHGQLAENAFEHFTFDKLFMGTDGIDLNAGVTTFNEVYTVSKAMCNAAREVILMADSSKFGRKSPNVVCSLESVDKLITDAGIDPAFRQALEEKGIDVIITGESNE",
    "total protein half-life in vivo": "12.5 h"
  }
]

* * *

Documented total protein half-life in vivo across a set of sequences
# test-name: total protein half-life in vivo (active degradation + dilution); higher = more stable protein
# condition-details: E. coli NCM3722 delta-hslV; growth: N-lim chemostat; doubling time 6 h
parameter: total protein half-life in vivo (h)

[
  {
    "construct-sequence": "METRREERIGQLLQELKRSDKLHLKDAAALLGVSEMTIRRDLNNHSAPVVLLGGYIVLEPRSASHYLLSDQKSRLVEEKRRAAKLAATLVEPDQTLFFDCGTTTPWIIEAIDNEIPFTAVCYSLNTFLALKEKPHCRAFLCGGEFHASNAIFKPIDFQQTLNNFCPDIAFYSAAGVHVSKGATCFNLEELPVKHWAMSMAQKHVLVVDHSKFGKVRPARMGDLKRFDIVVSDCCPEDEYVKYAQTQRIKLMY [P0ACK5]",
    "result-units": "h",
    "value-observed": 6.59
  },
  {
    "construct-sequence": "MKLTLKNLSMAIMMSTIVMGSSAMAADSNEKIVIAHRGASGYLPEHTLPAKAMAYAQGADYLEQDLVMTKDDNLVVLHDHYLDRVTDVADRFPDRARKDGRYYAIDFTLDEIKSLKFTEGFDIENGKKVQTYPGRFPMGKSDFRVHTFEEEIEFVQGLNHSTGKNIGIYPEIKAPWFHHQEGKDIAAKTLEVLKKYGYTGKDDKVYLQCFDADELKRIKNELEPKMGMELNLVQLIAYTDWNETQQKQPDGSWVNYNYDWMFKPGAMKQVAEYADGIGPDYHMLIEETSQPGNIKLTGMVQDAQQNKLVVHPYTVRSDKLPEYTPDVNQLYDALYNKAGVNGLFTDFPDKAVKFLNKE",
    "result-units": "h",
    "value-observed": 5.36
  },
  {
    "construct-sequence": "MAKSLFRALVALSFLAPLWLNAAPRVITLSPANTELAFAAGITPVGVSSYSDYPPQAQKIEQVSTWQGMNLERIVALKPDLVIAWRGGNAERQVDQLASLGIKVMWVDATSIEQIANALRQLAPWSPQPDKAEQAAQSLLDQYAQLKAQYADKPKKRVFLQFGINPPFTSGKESIQNQVLEVCGGENIFKDSRVPWPQVSREQVLARSPQAIVITGGPDQIPKIKQYWGEQLKIPVIPLTSDWFERASPRIILAAQQLCNALSQVD",
    "result-units": "h",
    "value-observed": 6.42
  }
]
